Just for reference, ChEMBL document CHEMBL4811219 is where these values come from.

# Protocol details: Cmax in CD-1 mouse at 20 mg/kg, po upto 7 hrs by LC-MS/MS analysis
# Type: ADME, organism-based
# Design: route oral, dose 20 mg/kg, time <=7
# Measurement context: in vivo
Property: Cmax (µM)

> print(dat)
                                   molecule  property  units.symbol  result.value
1  CC(Sc1nc2nn(C3(C)COC3)cc2c(=O)n1-c1ccccc1)c1ccccc1 (centres undefined)      Cmax            µM             7
2  CC(Sc1nc2c(cnn2C)c(=O)n1-c1ccccc1)c1ccccn1 (centres undefined)      Cmax            µM           7.3
3  CC(Sc1nc2c(cnn2C)c(=O)n1-c1ccccc1)c1ccccc1 (centres undefined)      Cmax            µM           0.8
4  CC(Sc1nc2nn(C3COC3)cc2c(=O)n1-c1ccccc1)c1ccccn1 (centres undefined)      Cmax            µM           3.9
